Sourced from patent US20090137577A1

Would you kindly list log10 EC50 for each of these compounds?
- tested-on: mGluR2 receptor (metabotropic glutamate receptor 2) (Homo sapiens)
- Sequence (Q14416 19-872, species assumed): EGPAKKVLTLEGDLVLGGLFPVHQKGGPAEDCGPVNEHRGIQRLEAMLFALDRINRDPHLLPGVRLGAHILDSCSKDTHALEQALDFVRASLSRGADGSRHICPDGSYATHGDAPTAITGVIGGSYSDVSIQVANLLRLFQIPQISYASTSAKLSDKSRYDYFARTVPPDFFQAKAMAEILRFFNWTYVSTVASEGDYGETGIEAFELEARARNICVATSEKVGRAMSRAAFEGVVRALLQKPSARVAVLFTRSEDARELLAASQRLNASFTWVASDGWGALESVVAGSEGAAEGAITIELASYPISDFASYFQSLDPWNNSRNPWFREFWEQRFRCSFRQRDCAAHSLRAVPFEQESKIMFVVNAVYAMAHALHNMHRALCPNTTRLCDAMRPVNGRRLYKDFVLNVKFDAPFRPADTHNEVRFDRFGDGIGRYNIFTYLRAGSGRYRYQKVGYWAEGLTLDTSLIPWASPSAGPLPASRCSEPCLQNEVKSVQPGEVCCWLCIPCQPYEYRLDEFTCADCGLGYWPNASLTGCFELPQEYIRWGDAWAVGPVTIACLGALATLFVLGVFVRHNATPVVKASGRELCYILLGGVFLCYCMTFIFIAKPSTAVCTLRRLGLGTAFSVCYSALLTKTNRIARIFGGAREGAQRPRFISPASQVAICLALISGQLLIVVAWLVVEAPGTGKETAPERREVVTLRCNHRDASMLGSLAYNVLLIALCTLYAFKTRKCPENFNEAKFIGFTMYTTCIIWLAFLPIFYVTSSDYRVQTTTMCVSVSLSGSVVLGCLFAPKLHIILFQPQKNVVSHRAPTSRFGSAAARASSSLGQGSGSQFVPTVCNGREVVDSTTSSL
- procedure-summary: mGluR2 potentiator screen (FLIPR, EC10-EC20 glutamate challenge);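 note: HEK cells stably expressing human mGluR2 with GL15 G protein, Fluo-4 calcium fluorescence read on FLIPR, compounds added before an EC10-EC20 glutamate challenge to detect potentiation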
- assay-setup: geometric mean; read-out: mGluR 2 EC50 (geometric mean)
On a log10 scale: recorded EC50, unit µM.

log10 EC50 reported for this compound CCCOc1ccc(CN2CC(c3ccccc3)OC2=O)cc1 (stereo not drawn) [Example 3] : -0.44

log10 EC50 reported for this compound C[C@@H]1CN(Cc2ccc(OCCC3CCCCC3)c(Cl)c2)C(=O)O1 [Example 287] : -0.76

log10 EC50 reported for this compound CC(Oc1ccc(CN2CCN(C(C)CC3CC3)CC2=O)cc1)C1CCCCC1 (stereo not drawn) [Example 219] : -0.16

log10 EC50 reported for this compound C[C@@H]1CN(Cc2ccc(-c3cccc(F)c3Cl)cc2F)C(=O)O1 [Example 251] : -1.25

log10 EC50 reported for this compound C[C@@H]1CN(Cc2ccc(Oc3ccc(F)cc3)cc2)C(=O)O1 [Example 179] : -0.86

log10 EC50 reported for this compound CC(C)COc1ccc(CN2CC(c3ccccc3)OC2=O)cc1 (stereo not drawn) [Example 6] : -0.82

log10 EC50 reported for this compound CC(C)COc1ccc(CN2CC(C)OC2=O)cc1 (stereo not drawn) [Example 20] : -0.01

log10 EC50 reported for this compound C[C@@H]1CN(Cc2ccc(OCC3CCC(NC4CCC4)CC3)cc2)C(=O)O1 (stereo partly drawn) [Example 297] : 0.30
